System: P-gp overexpressing prostate cancer cell line, DU145TXR
Experiment: MTT cell viability assay, resensitization to paclitaxel
Assay type: cell-based, human
Conditions: 7 μM inhibitor, vs paclitaxel alone
OBSERVABLE: Fold vs PTX (fold increased sensitivity) (fold)
Give just the number in fold; leave the unit off.

Field: example entries. Status: answers known.
Cc1cc(C)c(-c2cc(NC(=O)CSCC(=O)N3c4ccccc4CCc4ccccc43)n(-c3ccccc3)n2)cc1C : 353
Cc1cc(C)c(-c2cc(NC(=O)CSc3nnc(C4CC4)[nH]3)n(-c3ccccc3)n2)cc1C [compound 29, reference compound] : 36

Now take the following compound into account.
## Input P-gp overexpressing prostate cancer cell line, DU145TXR / Fold vs PTX (fold increased sensitivity) / Cc1cc(C)c(-c2cc(NC(=O)CSCC(=O)Nc3ccc4ccccc4c3)n(-c3ccccc3)n2)cc1C : value?
## Output 303

---

Target: Normal Human MDR1 P-glycoprotein (Homo sapiens, UniProt P08183)
Construct: made in house; host or cells: Pichia pastoris (P-gp); E. coli BL21 (DE3) (MSP1E3D1)
Sequence (P08183 whole entry): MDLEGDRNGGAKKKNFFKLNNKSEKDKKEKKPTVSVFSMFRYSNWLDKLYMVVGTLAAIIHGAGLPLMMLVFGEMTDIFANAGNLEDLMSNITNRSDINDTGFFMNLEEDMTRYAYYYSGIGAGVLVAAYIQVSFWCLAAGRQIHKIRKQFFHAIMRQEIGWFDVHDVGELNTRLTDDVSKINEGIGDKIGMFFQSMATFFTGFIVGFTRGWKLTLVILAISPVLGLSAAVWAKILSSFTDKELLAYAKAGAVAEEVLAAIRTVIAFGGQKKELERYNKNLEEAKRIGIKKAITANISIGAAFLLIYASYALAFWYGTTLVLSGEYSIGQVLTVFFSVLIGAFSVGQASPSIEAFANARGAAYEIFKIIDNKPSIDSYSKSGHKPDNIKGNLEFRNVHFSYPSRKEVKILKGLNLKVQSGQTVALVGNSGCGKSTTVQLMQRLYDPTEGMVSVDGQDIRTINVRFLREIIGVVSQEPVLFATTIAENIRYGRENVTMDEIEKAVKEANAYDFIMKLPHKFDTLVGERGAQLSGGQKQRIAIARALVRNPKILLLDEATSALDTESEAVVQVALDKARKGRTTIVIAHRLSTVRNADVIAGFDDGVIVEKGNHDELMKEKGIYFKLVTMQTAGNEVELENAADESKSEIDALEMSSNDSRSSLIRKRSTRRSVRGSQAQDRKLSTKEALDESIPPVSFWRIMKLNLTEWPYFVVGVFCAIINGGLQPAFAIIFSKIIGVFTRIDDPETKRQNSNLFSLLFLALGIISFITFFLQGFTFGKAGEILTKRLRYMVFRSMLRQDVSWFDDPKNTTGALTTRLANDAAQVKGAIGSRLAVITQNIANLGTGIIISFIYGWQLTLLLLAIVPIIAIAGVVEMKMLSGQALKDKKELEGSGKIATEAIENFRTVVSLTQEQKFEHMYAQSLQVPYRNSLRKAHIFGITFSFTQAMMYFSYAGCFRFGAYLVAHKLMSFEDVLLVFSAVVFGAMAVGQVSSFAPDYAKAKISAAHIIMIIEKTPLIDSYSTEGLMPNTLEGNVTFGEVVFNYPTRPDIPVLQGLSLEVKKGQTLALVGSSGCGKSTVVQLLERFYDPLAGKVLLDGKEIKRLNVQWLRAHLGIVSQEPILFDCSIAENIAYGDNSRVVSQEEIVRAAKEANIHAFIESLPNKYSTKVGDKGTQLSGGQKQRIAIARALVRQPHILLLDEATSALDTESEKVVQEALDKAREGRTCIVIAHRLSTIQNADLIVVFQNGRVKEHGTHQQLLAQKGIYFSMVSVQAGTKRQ
Test: ATPase activity assay (basal and verapamil-stimulated), P-gp in nanodiscs
Assay type: biochemical
Conditions: in the presence of verapamil, ± standard deviation
OBSERVABLE: Stimulated ATPase

Cc1cc(C)c(-c2cc(NC(=O)CSCC(=O)Nc3ccc4ccccc4c3)n(-c3ccccc3)n2)cc1C : 40 ± 3 % of DMSO
Cc1cc(C)c(-c2cc(NC(=O)CSCC(=O)N3c4ccccc4CCc4ccccc43)n(-c3ccccc3)n2)cc1C : 62 ± 5 % of DMSO
Cc1cc(C)c(-c2cc(NC(=O)CSc3nnc(C4CC4)[nH]3)n(-c3ccccc3)n2)cc1C [compound 29, reference compound] : 62 ± 3 % of DMSO
Cc1cc(C)c(-c2cc(NC(=O)CSCC(=O)NC(c3ccccc3)c3ccccc3)n(-c3ccccc3)n2)cc1C : 54 ± 7 % of DMSO
COc1cc(NC(=O)CSCC(=O)Nc2cc(-c3cc(C)c(C)cc3C)nn2-c2ccccc2)cc(OC)c1OC : 61 ± 7 % of DMSO

## Input Normal Human MDR1 P-glycoprotein (Homo sapiens, UniProt P08183) / Stimulated ATPase / Cc1cc(C)c(-c2cc(NC(=O)CSCC(=O)NCc3ccc(F)cc3)n(-c3ccccc3)n2)cc1C : value?
## Output 59 ± 4 % of DMSO

## Input Normal Human MDR1 P-glycoprotein (Homo sapiens, UniProt P08183) / Stimulated ATPase / Cc1cc(C)c(-c2cc(NC(=O)CSc3nnc4c(n3)[nH]c3ccccc34)n(-c3ccccc3)n2)cc1C : value?
## Output 66 ± 6 % of DMSO

---

Tested on: P-gp overexpressing prostate cancer cell line, DU145TXR
Assay: MTT cell viability assay, resensitization to paclitaxel
Format: cell-based, human
Conditions: 7 μM inhibitor, vs paclitaxel + parental compound 29
This section presents compounds with their documented Fold vs PTX + 29 values.
Give just the number in fold; leave the unit off.

Cc1cc(C)c(-c2cc(NC(=O)CSCC(=O)Nc3ccc4ccccc4c3)n(-c3ccccc3)n2)cc1C [29-231] : 8.4
Cc1cc(C)c(-c2cc(NC(=O)CSCC(=O)N3c4ccccc4CCc4ccccc43)n(-c3ccccc3)n2)cc1C [29-227] : 10

Now take the following compound into account.
## Input P-gp overexpressing prostate cancer cell line, DU145TXR / Fold vs PTX + 29 / Cc1cc(C)c(-c2cc(NC(=O)CSc3nnc(C4CC4)[nH]3)n(-c3ccccc3)n2)cc1C [compound 29, reference compound] : value?
## Output 1

---

Molecular target: cysteineless mouse P-glycoprotein (Mus musculus, UniProt P21447, C1070A/C1121A/C1223A/C133A/C427A/C638A/C669A/C713A/C952A)
Construct: made in house; host or cells: Pichia pastoris
Sequence (P21447 whole entry C133A/C427A/C638A/C669A/C713A/C952A/C1070A/C1121A/C1223A): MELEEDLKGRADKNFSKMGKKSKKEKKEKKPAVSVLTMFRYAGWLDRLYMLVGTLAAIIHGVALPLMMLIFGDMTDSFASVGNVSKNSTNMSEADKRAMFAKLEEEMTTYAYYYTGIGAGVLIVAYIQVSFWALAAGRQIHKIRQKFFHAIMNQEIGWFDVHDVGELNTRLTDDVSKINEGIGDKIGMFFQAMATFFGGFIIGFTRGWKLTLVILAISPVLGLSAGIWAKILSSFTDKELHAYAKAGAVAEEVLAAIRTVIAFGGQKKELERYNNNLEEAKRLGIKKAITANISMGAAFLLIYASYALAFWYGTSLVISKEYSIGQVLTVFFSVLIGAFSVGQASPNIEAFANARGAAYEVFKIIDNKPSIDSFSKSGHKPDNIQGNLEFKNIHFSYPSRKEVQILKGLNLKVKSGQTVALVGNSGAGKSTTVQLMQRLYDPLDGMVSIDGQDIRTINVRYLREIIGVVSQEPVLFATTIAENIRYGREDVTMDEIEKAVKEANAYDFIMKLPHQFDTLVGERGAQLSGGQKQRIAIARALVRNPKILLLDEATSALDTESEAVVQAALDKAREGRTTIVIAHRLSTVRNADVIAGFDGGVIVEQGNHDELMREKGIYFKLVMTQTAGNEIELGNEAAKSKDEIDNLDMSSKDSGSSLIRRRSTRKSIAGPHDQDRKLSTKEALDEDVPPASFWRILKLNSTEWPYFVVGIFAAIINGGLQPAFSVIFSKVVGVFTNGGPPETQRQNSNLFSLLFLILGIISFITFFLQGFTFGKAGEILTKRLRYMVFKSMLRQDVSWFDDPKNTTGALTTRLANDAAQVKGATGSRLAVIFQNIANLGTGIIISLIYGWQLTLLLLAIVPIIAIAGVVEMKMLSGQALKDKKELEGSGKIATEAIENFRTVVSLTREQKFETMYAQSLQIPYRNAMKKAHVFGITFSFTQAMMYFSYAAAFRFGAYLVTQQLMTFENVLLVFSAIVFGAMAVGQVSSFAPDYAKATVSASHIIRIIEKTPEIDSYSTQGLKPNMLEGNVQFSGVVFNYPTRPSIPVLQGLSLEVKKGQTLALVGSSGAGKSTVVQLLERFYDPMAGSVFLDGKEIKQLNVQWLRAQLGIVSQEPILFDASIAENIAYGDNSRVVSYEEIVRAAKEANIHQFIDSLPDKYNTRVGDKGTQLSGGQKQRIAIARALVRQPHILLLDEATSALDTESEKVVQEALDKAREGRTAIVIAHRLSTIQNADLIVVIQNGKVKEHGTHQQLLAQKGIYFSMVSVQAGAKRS
Assay: SL-ATP (spin-labeled ATP analog) binding titration by ESR
OBSERVABLE: Effect on SL-ANP binding

Field: example entries. Status: answers known.
Cc1cc(C)c(-c2cc(NC(=O)CSc3nnc4c(n3)[nH]c3ccccc34)n(-c3ccccc3)n2)cc1C [29-541] : no
Cc1cc(C)c(-c2cc(NC(=O)CSCC(=O)Nc3ccc4ncsc4c3)n(-c3ccccc3)n2)cc1C [29-255] : no
Cc1cc(C)c(-c2cc(NC(=O)CSCC(=O)NCc3ccc(F)cc3)n(-c3ccccc3)n2)cc1C [29-286] : no
Cc1cc(C)c(-c2cc(NC(=O)CSCC(=O)N3c4ccccc4CCc4ccccc43)n(-c3ccccc3)n2)cc1C [29-227] : no
COc1cc(NC(=O)CSCC(=O)Nc2cc(-c3cc(C)c(C)cc3C)nn2-c2ccccc2)cc(OC)c1OC [29-238] : yes
Cc1cc(C)c(-c2cc(NC(=O)CSCC(=O)NC34CC5CC(CC(C5)C3)C4)n(-c3ccccc3)n2)cc1C [29-278] : yes
Cc1cc(C)c(-c2cc(NC(=O)CSc3cccc(NC(=O)c4cncc(Br)c4)c3)n(-c3ccccc3)n2)cc1C [29-551] : no
Cc1cc(C)c(-c2cc(NC(=O)CSCC(=O)NC(c3ccccc3)c3ccccc3)n(-c3ccccc3)n2)cc1C [29-280] : marginally

Now take the following compound into account.
## Input Given the compound Cc1cc(C)c(-c2cc(NC(=O)CSCC(=O)Nc3ccc4ccccc4c3)n(-c3ccccc3)n2)cc1C [29-231] , what is its reported Effect on SL-ANP binding?
## Output marginally

---

Biological target: Normal Human MDR1 P-glycoprotein (Homo sapiens, UniProt P08183)
Construct: made in house; host or cells: Pichia pastoris (P-gp); E. coli BL21 (DE3) (MSP1E3D1)
Assay: ATPase activity assay (basal and verapamil-stimulated), P-gp in nanodiscs
Type: biochemical
Details: in the presence of verapamil, ± standard deviation
Procedure: To assess whether the observed discrepancies of compounds stimulating basal P-gp ATPase activity but not being transport substrates of the human pump in the cell culture assessments were due to the fact that these biochemical assays used a cysteineless variant of the mouse MDR3 P-glycoprotein, the experiments were repeated using normal human MDR1 P-gp. […] ATPase Activity Assays. ATP hydrolysis activity was measured using a coupled enzyme assay^72 as modified in reference^26.
This section presents compounds with their documented Stimulated ATPase values.

Cc1cc(C)c(-c2cc(NC(=O)CSc3cccc(NC(=O)c4cncc(Br)c4)c3)n(-c3ccccc3)n2)cc1C [29-551] : 27 ± 1 % of DMSO
Cc1cc(C)c(-c2cc(NC(=O)CSCC(=O)NC34CC5CC(CC(C5)C3)C4)n(-c3ccccc3)n2)cc1C [29-278] : 63 ± 6 % of DMSO

## Input Given the compound Cc1cc(C)c(-c2cc(NC(=O)CSCC(=O)Nc3ccc4ncsc4c3)n(-c3ccccc3)n2)cc1C [29-255] , what is its reported Stimulated ATPase?
## Output 59 ± 6 % of DMSO

---

Target: P-gp (P-gp over-expressing cell line, DU145TXR) (Homo sapiens, UniProt P08183)
Assay: Cellular accumulation of experimental compounds by LC-MS/MS with and without tariquidar
Conditions: human
Assign criterion met to entries whose Cellular accumulation: ratio of plus Tariquidar over no Tariquidar meets or exceeds 1; assign criterion not met to the rest.

Please review the entries below; each comes with its answer.
COc1cc(NC(=O)CSCC(=O)Nc2cc(-c3cc(C)c(C)cc3C)nn2-c2ccccc2)cc(OC)c1OC : criterion met
Cc1cc(C)c(-c2cc(NC(=O)CSCC(=O)Nc3ccc4ccccc4c3)n(-c3ccccc3)n2)cc1C : criterion not met
Cc1cc(C)c(-c2cc(NC(=O)CSCC(=O)NC(c3ccccc3)c3ccccc3)n(-c3ccccc3)n2)cc1C : criterion met
Cc1cc(C)c(-c2cc(NC(=O)CSCC(=O)Nc3ccc4ncsc4c3)n(-c3ccccc3)n2)cc1C : criterion met

Turning to the following compound.
## Input Tell me whether Cellular accumulation: ratio of plus Tariquidar over no Tariquidar is at least 1 here: Cc1cc(C)c(-c2cc(NC(=O)CSc3cccc(NC(=O)c4cncc(Br)c4)c3)n(-c3ccccc3)n2)cc1C
## Output criterion met

---

This section presents compounds with their documented Basal ATPase values.
Molecular target: Normal Human MDR1 P-glycoprotein (Homo sapiens)
Construct: made in house; host or cells: Pichia pastoris (P-gp); E. coli BL21 (DE3) (MSP1E3D1)
Test: ATPase activity assay (basal and verapamil-stimulated), P-gp in nanodiscs
Assay type: biochemical
Details: no added transport substrate, ± standard deviation

Field: example entries. Status: answers known.
Cc1cc(C)c(-c2cc(NC(=O)CSCC(=O)N3c4ccccc4CCc4ccccc43)n(-c3ccccc3)n2)cc1C : 83 ± 7 % of DMSO
Cc1cc(C)c(-c2cc(NC(=O)CSc3nnc4c(n3)[nH]c3ccccc34)n(-c3ccccc3)n2)cc1C : 87 ± 9 % of DMSO

Now take the following compound into account.
## Input Given the compound Cc1cc(C)c(-c2cc(NC(=O)CSCC(=O)NC(c3ccccc3)c3ccccc3)n(-c3ccccc3)n2)cc1C , what is its reported Basal ATPase?
## Output 76 ± 8 % of DMSO
